# ASSAY PROCEDURE: Half-life in rat at 4 mpk upon peroral administration
# Type: ADME, organism-based
# CONDITION SET: in vivo, po, 4 mg/kg
Cut-off 5 h on half-life: below means yes (1), at or above means no (0).

Regarding COc1cc(C(F)(F)F)nn1-c1ccc(NC(=O)c2ccncc2F)cc1 , kindly confirm whether its half-life is beneath 5 h.
yes (1)

Consider O=C(Nc1ccc(-n2nc(C(F)(F)F)cc2OC(F)F)cc1)c1ccncc1F . Does its half-life lie strictly below 5 h?
no (0)

Quick check: half-life of N#Cc1cc(C(F)(F)F)nn1-c1ccc(NC(=O)c2ccccc2F)cc1 under 5 h?
no (0)

In the record for CSc1cc(C(F)(F)F)nn1-c1ccc(NC(=O)c2ccncc2F)cc1 , is half-life less than 5 h?
no (0)

Determine whether this molecule shows half-life lower than 5 h (ties excluded): O=C(Nc1ccc(-n2nc(C(F)(F)F)cc2[N+](=O)[O-])cc1)c1ccncc1F
yes (1)

Strictly below 5 h in half-life? N#Cc1cc(C(F)(F)F)nn1-c1ccc(NC(=O)c2ccncc2F)cc1
yes (1)

Please determine if O=C(Nc1ccc(-n2nc(C(F)(F)F)cc2Cl)cc1)c1ccncc1F is below 5 h in terms of half-life.
yes (1)

Hi there! Is half-life for O=C(Nc1ccc(-n2nc(C(F)(F)F)cc2Br)cc1)c1ccncc1F below 5 h, do you know?
no (0)

###

# ASSAY PROCEDURE: Maximum concentration in rat at 4 mpk upon peroral administration
# Assay type: ADME, organism-based
# Design: dose 4 mpk, route oral
# CONDITION SET: in vivo, po, 4 mg/kg
REPORTED ENDPOINT: log10 of Cmax (log10 of the value in ng/mL)
Heads up: the numbers are on a log10 scale; they represent Cmax in ng/mL.

Consider CC(=O)c1cc(C(F)(F)F)nn1-c1ccc(NC(=O)c2ccccc2F)cc1 . Its measured log10 of Cmax is 2.08

The compound listed as O=C(Nc1ccc(-n2nc(C(F)(F)F)cc2OC(F)F)cc1)c1ccncc1F has a reported log10 of Cmax of 2.79

Looking up O=C(Nc1ccc(-n2nc(C(F)(F)F)cc2Cl)cc1)c1ccncc1F , I found its log10 of Cmax recorded as 2.89

Recorded log10 of Cmax (compound COc1cc(C(F)(F)F)nn1-c1ccc(NC(=O)c2ccncc2F)cc1 ): 3.17

Per the records, this compound ( CSc1cc(C(F)(F)F)nn1-c1ccc(NC(=O)c2ccncc2F)cc1 ) has log10 of Cmax equal to 2.94

get_value(item= O=C(Nc1ccc(-n2nc(C(F)(F)F)cc2[N+](=O)[O-])cc1)c1ccncc1F , readout=log10 of Cmax) returns 2.34

For reference, reported log10 of Cmax for N#Cc1cc(C(F)(F)F)nn1-c1ccc(NC(=O)c2ccncc2F)cc1 stands at 3.04

Input COc1cc(C(F)(F)F)nn1-c1ccc(NC(=O)c2ccccc2F)cc1 . Output log10 of Cmax: 1.85

Data point: N#Cc1cc(C(F)(F)F)nn1-c1ccc(NC(=O)c2ccccc2F)cc1 ; log10 of Cmax = 2.45

Please fill in: log10 of Cmax reported for O=C(Nc1ccc(-n2nc(C(F)(F)F)cc2Br)cc1)c1ccncc1F = 3.02

###

# Species on record: Homo sapiens
# ASSAY PROCEDURE: In vitro protein binding in human serum at 5 ug/ml
# Type: ADME
For each of the compounds below, state its Binding.
Answer with the value and then the unit.

get_value(item= O=C(Nc1ccc(-n2nc(C(F)(F)F)cc2C(F)(F)F)cc1)c1cc(F)ccc1F , readout=Binding) returns 99.9%

For Cc1noc(C)c1C(=O)Nc1ccc(-n2nc(C(F)(F)F)cc2C(F)(F)F)cc1 the compound record lists Binding as 99.6%

Lab note: O=C(Nc1ccc(-n2nc(C(F)(F)F)cc2C(F)(F)F)cc1)c1ccncc1 gave Binding of 99.7%

// Binding lookup, compound = O=C(Nc1ccc(-n2nc(C(F)(F)F)cc2C(F)(F)F)cc1)c1ccccc1Cl , result: 99.9%

Quick note, Binding for O=C(Nc1ccc(-n2nc(C(F)(F)F)cc2C(F)(F)F)cc1)c1ccncc1F landed at 99.7%

###

I'd be grateful if you could share measured bioavailability for these entries.
# ASSAY PROCEDURE: Oral bioavailability in rat (dose 4 mg/kg)
# Format: ADME, organism-based
# CONDITION SET: in vivo
Output spec: scalar in %, unitless text.

The reported value for N#Cc1cc(C(F)(F)F)nn1-c1ccc(NC(=O)c2ccccc2F)cc1 in terms of bioavailability is 31

Sure, the documented bioavailability for O=C(Nc1ccc(-n2nc(C(F)(F)F)cc2[N+](=O)[O-])cc1)c1ccncc1F is 18

# bioavailability of O=C(Nc1ccc(-n2nc(C(F)(F)F)cc2Cl)cc1)c1ccncc1F = 79

Record summary for COc1cc(C(F)(F)F)nn1-c1ccc(NC(=O)c2ccncc2F)cc1 : reported bioavailability = 68

Memo: CSc1cc(C(F)(F)F)nn1-c1ccc(NC(=O)c2ccncc2F)cc1 , reported bioavailability: 63

Query N#Cc1cc(C(F)(F)F)nn1-c1ccc(NC(=O)c2ccncc2F)cc1 yields bioavailability of 78

// field: bioavailability; key: CC(=O)c1cc(C(F)(F)F)nn1-c1ccc(NC(=O)c2ccccc2F)cc1 ; value = 5

# bioavailability of O=C(Nc1ccc(-n2nc(C(F)(F)F)cc2OC(F)F)cc1)c1ccncc1F = 74

For reference, reported bioavailability for O=C(Nc1ccc(-n2nc(C(F)(F)F)cc2Br)cc1)c1ccncc1F stands at 94

Recorded result, COc1cc(C(F)(F)F)nn1-c1ccc(NC(=O)c2ccccc2F)cc1 , bioavailability: 26

###

# ASSAY PROCEDURE: Area under curve in rat at 4 mpk upon peroral administration
# Format: ADME, organism-based
# CONDITION SET: in vivo, po, 4 mg/kg
REPORTED ENDPOINT: AUC (ng·h/mL)
Please reply with the bare figure in ng·h/mL and do not write the unit itself.

Documented AUC of O=C(Nc1ccc(-n2nc(C(F)(F)F)cc2OC(F)F)cc1)c1ccncc1F : 7750

Lab note: measured AUC of N#Cc1cc(C(F)(F)F)nn1-c1ccc(NC(=O)c2ccccc2F)cc1 was 3240

Looking up CSc1cc(C(F)(F)F)nn1-c1ccc(NC(=O)c2ccncc2F)cc1 , I see its AUC listed as 7790

Consider O=C(Nc1ccc(-n2nc(C(F)(F)F)cc2[N+](=O)[O-])cc1)c1ccncc1F . Its measured AUC is 310

The molecule listed as O=C(Nc1ccc(-n2nc(C(F)(F)F)cc2Br)cc1)c1ccncc1F has a reported AUC of 16400

For COc1cc(C(F)(F)F)nn1-c1ccc(NC(=O)c2ccccc2F)cc1 the molecule record lists AUC as 970

// sample COc1cc(C(F)(F)F)nn1-c1ccc(NC(=O)c2ccncc2F)cc1 , its AUC was 3050

Record O=C(Nc1ccc(-n2nc(C(F)(F)F)cc2Cl)cc1)c1ccncc1F , field AUC: 11000

The value of AUC measured for the molecule N#Cc1cc(C(F)(F)F)nn1-c1ccc(NC(=O)c2ccncc2F)cc1 turned out to be 10900

Noted for CC(=O)c1cc(C(F)(F)F)nn1-c1ccc(NC(=O)c2ccccc2F)cc1 : its AUC reads 1110
